# Tested on: Yersinia pseudotuberculosis YPIII
# TEST: Inhibition of T3S in Yersinia pseudotuberculosis YPIII expressing yopE-luxAB at 50 uM after 3 hrs by luciferase reporter gene assay
VALUE KIND: inhibition
State the value with its unit after it.

Challenge: Could you share what inhibition was measured for O=C(N/N=C/c1cc(Br)ccc1O)c1ccncc1 , tested on Yersinia pseudotuberculosis YPIII?
Response given: 87%

Challenge: Could you share what inhibition was measured for COc1cccc(/C=N/NC(=O)c2ccccc2[N+](=O)[O-])c1O , tested on Yersinia pseudotuberculosis YPIII?
Response given: 32%

Challenge: Could you share what inhibition was measured for COc1cccc(C(=O)N/N=C/c2cccc(F)c2O)c1 , tested on Yersinia pseudotuberculosis YPIII?
Response given: 45%

Challenge: Could you share what inhibition was measured for COc1ccc(Br)c(C(=O)N/N=C/c2cc([N+](=O)[O-])cc([N+](=O)[O-])c2O)c1 , tested on Yersinia pseudotuberculosis YPIII?
Response given: 30%

Challenge: Could you share what inhibition was measured for COc1cc(C(=O)N/N=C/c2cc(Cl)cc(Cl)c2O)cc(OC)c1OC , tested on Yersinia pseudotuberculosis YPIII?
Response given: 27%

Challenge: Could you share what inhibition was measured for COc1ccc(Br)c(/C=N/NC(=O)c2ccncc2)c1O , tested on Yersinia pseudotuberculosis YPIII?
Response given: 54%

Challenge: Could you share what inhibition was measured for CCN(CC)c1ccc(/C=N/NC(=O)c2ccc(OC)c(OC)c2)c(O)c1 , tested on Yersinia pseudotuberculosis YPIII?
Response given: 66%

Challenge: Could you share what inhibition was measured for O=C(N/N=C/c1cccc(F)c1O)c1ccc([N+](=O)[O-])cc1 , tested on Yersinia pseudotuberculosis YPIII?
Response given: 28%

Challenge: Could you share what inhibition was measured for O=C(N/N=C/c1cccc(F)c1O)c1cccc(C(F)(F)F)c1 , tested on Yersinia pseudotuberculosis YPIII?
Response given: 32%

Challenge: Could you share what inhibition was measured for COc1cc(Br)cc(/C=N/NC(=O)CCc2ccc(O)cc2)c1O , tested on Yersinia pseudotuberculosis YPIII?
Response given: 23%

Challenge: Could you share what inhibition was measured for O=C(N/N=C/c1ccc(Cl)cc1O)c1ccncc1 , tested on Yersinia pseudotuberculosis YPIII?
Response given: 84%

Challenge: Could you share what inhibition was measured for O=C(COc1ccc([N+](=O)[O-])cc1)N/N=C/c1cccc(F)c1O , tested on Yersinia pseudotuberculosis YPIII?
Response given: 84%

Challenge: Could you share what inhibition was measured for COc1ccc(/C=N/NC(=O)CCc2ccc(O)cc2)c(O)c1 , tested on Yersinia pseudotuberculosis YPIII?
Response given: 22%

Challenge: Could you share what inhibition was measured for CC(C)(C)c1ccc(O)c(/C=N/NC(=O)Cc2ccccc2)c1 , tested on Yersinia pseudotuberculosis YPIII?
Response given: 26%

Challenge: Could you share what inhibition was measured for CC(C)(C)c1cc(/C=N/NC(=O)c2cccc(C(F)(F)F)c2)c(O)c(C(C)(C)C)c1 , tested on Yersinia pseudotuberculosis YPIII?
Response given: 9%

Challenge: Could you share what inhibition was measured for COc1cc(/C=N/NC(=O)COc2ccc([N+](=O)[O-])cc2)c(O)c(OC)c1 , tested on Yersinia pseudotuberculosis YPIII?
Response given: 16%

Challenge: Could you share what inhibition was measured for COc1ccc(C(=O)N/N=C/c2cc(F)cc(Cl)c2O)cc1OC , tested on Yersinia pseudotuberculosis YPIII?
Response given: 38%

Challenge: Could you share what inhibition was measured for COc1ccc(/C=N/NC(=O)c2sc3ccccc3c2Cl)c(O)c1 , tested on Yersinia pseudotuberculosis YPIII?
Response given: 27%

Challenge: Could you share what inhibition was measured for O=C(N/N=C/c1ccc(O)c(O)c1O)c1ccccc1[N+](=O)[O-] , tested on Yersinia pseudotuberculosis YPIII?
Response given: 36%

Challenge: Could you share what inhibition was measured for CC(C)(C)c1ccc(O)c(/C=N/NC(=O)c2ccc(Br)cc2)c1 , tested on Yersinia pseudotuberculosis YPIII?
Response given: 39%

Challenge: Could you share what inhibition was measured for CCN(CC)c1ccc(/C=N/NC(=O)c2cc(Cl)cc(Cl)c2)c(O)c1 , tested on Yersinia pseudotuberculosis YPIII?
Response given: 43%

Challenge: Could you share what inhibition was measured for NC(=O)C(=O)N/N=C/c1c(O)cc(O)cc1O , tested on Yersinia pseudotuberculosis YPIII?
Response given: 51%
